// reported yeast fitness (ln) for each item listed
B1: tRNA (parent)
chain: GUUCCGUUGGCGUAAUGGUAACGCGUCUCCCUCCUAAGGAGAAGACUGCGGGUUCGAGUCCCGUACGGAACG

# Variants of: B1
# assayOverview: yeast fitness, log relative to wild type (ln ratio); higher = fitter; tRNA-Arg(CCU), competitive growth, 37 C, 1 M NaCl

[
  {
    "variantSpec": "G1A U2G G6U C27U A43C C66U A70G C71U",
    "yeast fitness (ln)": -0.346
  },
  {
    "variantSpec": "G6A C46U A69G A70U",
    "yeast fitness (ln)": -0.176
  },
  {
    "variantSpec": "G1A U2G G6U A43C A69G C71U",
    "yeast fitness (ln)": -0.537
  },
  {
    "variantSpec": "G6U C46U A70G C71U",
    "yeast fitness (ln)": -0.202
  },
  {
    "variantSpec": "G6A C27U C66A A70G C71U",
    "yeast fitness (ln)": -0.364
  },
  {
    "variantSpec": "G1A U2G G6A A43C C46U A69G A70U",
    "yeast fitness (ln)": -0.0779
  },
  {
    "variantSpec": "G1A U2C C27U A69G A70U C71U",
    "yeast fitness (ln)": -0.351
  },
  {
    "variantSpec": "G6U C27U A43C C46U C66A A69G",
    "yeast fitness (ln)": -0.0652
  },
  {
    "variantSpec": "G6U A43C C71U",
    "yeast fitness (ln)": -0.253
  },
  {
    "variantSpec": "G1A U2G C27U A43C C46U C66A C71U",
    "yeast fitness (ln)": -0.254
  },
  {
    "variantSpec": "U2C G6A C27U A43C C46U C66A A70U C71U",
    "yeast fitness (ln)": -0.268
  },
  {
    "variantSpec": "U2C C66U A69G A70G C71U",
    "yeast fitness (ln)": -0.101
  },
  {
    "variantSpec": "G1A U2C G6U C27U C66U A70G C71U",
    "yeast fitness (ln)": -0.496
  },
  {
    "variantSpec": "U2G A43C C46U C71U",
    "yeast fitness (ln)": -0.0479
  },
  {
    "variantSpec": "U2G G6U C27U A70U",
    "yeast fitness (ln)": -0.397
  },
  {
    "variantSpec": "A43C C66A A70G C71U",
    "yeast fitness (ln)": -0.105
  },
  {
    "variantSpec": "U2C G6A C27U A43C C46U A69G A70U C71U",
    "yeast fitness (ln)": -0.359
  },
  {
    "variantSpec": "G1A G6A C27U A43C C46U C66U A70G",
    "yeast fitness (ln)": -0.27
  },
  {
    "variantSpec": "G1A U2C C27U A69G C71U",
    "yeast fitness (ln)": -0.131
  },
  {
    "variantSpec": "G1A C27U A43C C66A C71U",
    "yeast fitness (ln)": -0.277
  },
  {
    "variantSpec": "G1A A43C C66A A69G A70G C71U",
    "yeast fitness (ln)": -0.249
  },
  {
    "variantSpec": "G1A G6U C27U A43C A70U C71U",
    "yeast fitness (ln)": -0.341
  }
]
